The measurements presented in this section are drawn from paper PMC5540273.

Listed next: entries and their corresponding %Inh.
test system: MST1; construct: gene STK4; settings: concentration: 1 μM, replicates: in singlicate; n = 1;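 also: KINOMEscan kinase panel screen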
All answers are understood in %, so give the number only.

These solved cases illustrate the format of a correct answer.
>>> value_measured("COc1cc(Nc2nccc(N3CCC(NS(=O)(=O)c4ccc(NC(C)=O)cc4)CC3)n2)cc(OC)c1OC")
0
>>> value_measured("O=C(Nc1n[nH]c2nc(-c3cccc(O)c3)ccc12)C1CC1")
0
>>> value_measured("O=C(Nc1n[nH]c2nc(-c3ccccc3)ccc12)C1CC1")
3
>>> value_measured("CN(C)CCNS(=O)(=O)c1ccc(-c2ccnc3[nH]ccc23)cc1")
17
>>> value_measured("Cc1ccc(O)cc1Nc1ccnc2ccc(C(C)(C)C)cc12")
0
>>> value_measured("Cn1cc(-c2ccc3c(c2)CCN3C(=O)Cc2cc(F)cc(C(F)(F)F)c2)c2c(N)ncnc21")
39

Attention now shifts to the item below.
Input CC(C)c1nc(-c2ccc(F)c(NS(=O)(=O)c3c(F)cccc3F)c2)c(-c2ccnc(Nc3ccc(N4CCOCC4)nc3)n2)s1 . Output %Inh: 17
